Target: KRas G12A (Homo sapiens, UniProt P01116, G12A)
Sequence (P01116 1-169 isoform P01116-2 G12A): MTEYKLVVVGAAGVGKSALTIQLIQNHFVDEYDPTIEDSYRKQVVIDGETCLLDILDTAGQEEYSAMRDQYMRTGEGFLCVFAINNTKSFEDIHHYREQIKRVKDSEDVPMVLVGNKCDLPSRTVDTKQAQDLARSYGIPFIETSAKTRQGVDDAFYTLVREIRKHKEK
Type: binding
Details: TR-FRET displacement, read-out: Binding to KRas (IC50 nM) G12A

>  <molecule>
CCc1cccc2cccc(N3CCc4c(nc(OCC5(CN(C)C)CC5)nc4NCc4ccnn4C4CC4(F)F)C3)c12 (stereo not shown)

>  <IC50>
259 nM

$$$$
>  <molecule>
CCc1cccc2cccc(N3CCc4c(nc(OCC5(CN(C)C)CC5)nc4N4CCCC(c5nnc[nH]5)C4)C3)c12 (stereo not shown)

>  <IC50>
296 nM

$$$$
>  <molecule>
Cc1cc2[nH]ncc2c(N2CCc3c(nc(OCC45CCCN4CCC5)nc3N3CCCC4(C3)NC(=O)NC4=O)C2)c1C (stereo not shown)

>  <IC50>
11 nM

$$$$
>  <molecule>
Cc1cc2[nH]ncc2c(N2CCc3c(nc(OCC45CCCN4CCC5)nc3N3CCCn4nc(C(=O)N(C)C)cc4C3)C2)c1C

>  <IC50>
387 nM

$$$$
>  <molecule>
CCc1cccc2cccc(N3CCc4c(nc(OCC5(CN(C)C)CC5)nc4N4CCn5nnc(CO)c5C4)C3)c12

>  <IC50>
7190 nM

$$$$
>  <molecule>
O=C1NC(=O)C2(CCCN(c3nc(OCC45CCCN4CCC5)nc4c3CCN(c3cc(O)cc(Cl)c3C3CC3)C4)C2)N1 (stereo not shown)

>  <IC50>
< 2 nM

$$$$
>  <molecule>
CN1CCC[C@H]1COc1nc2c(c(N3CCCC4(CC(O)C4)C3)n1)CCN(c1cccc3cccc(Cl)c13)C2 (stereo partly shown)

>  <IC50>
2540 nM

$$$$

Where do the numbers come from? From patent US20250368649A1.
